Reference source for all entries: ChEMBL document CHEMBL4373711

Tested on: Mycobacterium tuberculosis
Assay: Antimycobacterial activity against multi-drug resistant Mycobacterium tuberculosis Praha 1 after 21 days
Assay type: functional
Settings: Praha 1, 504 h
Exam item: assign label 1 to entries whose MIC99 is below 0.1 µM and label 0 to entries at or above 0.1 µM. Note that a value of exactly 0.1 µM receives label 0.

O=[N+]([O-])c1cc(CSc2nnc(C3CCCCC3)n2Cc2ccccc2)cc(C(F)(F)F)c1
label 0

A record lists O=[N+]([O-])c1cc(CSc2nnc(-c3ccccc3)n2Cc2ccccc2)cc([N+](=O)[O-])c1 . Is its MIC99 below 0.1 µM?
label 0

A record lists COc1ccc(CSc2nnc(-c3cc([N+](=O)[O-])cc(C(F)(F)F)c3)n2Cc2ccccc2)cc1 . Is its MIC99 below 0.1 µM?
label 0

A record lists Cn1c(SCc2ccc(Cl)cc2)nnc1-c1cc([N+](=O)[O-])cc([N+](=O)[O-])c1 . Is its MIC99 below 0.1 µM?
label 0

A record lists CCCSc1nnc(-c2cc([N+](=O)[O-])cc([N+](=O)[O-])c2)n1Cc1ccccc1 . Is its MIC99 below 0.1 µM?
label 0

A record lists CCCCCCCCSc1nnc(-c2cc([N+](=O)[O-])cc([N+](=O)[O-])c2)n1Cc1ccccc1 . Is its MIC99 below 0.1 µM?
label 0

A record lists CCCCCCn1c(SCc2cc([N+](=O)[O-])cc([N+](=O)[O-])c2)nnc1-c1ccccc1 . Is its MIC99 below 0.1 µM?
label 0

A record lists O=[N+]([O-])c1cc(-c2nnc(SCc3ccc(Cl)c(Cl)c3)n2Cc2ccccc2)cc(C(F)(F)F)c1 . Is its MIC99 below 0.1 µM?
label 0

A record lists CCn1c(SCc2ccccc2)nnc1-c1cc([N+](=O)[O-])cc([N+](=O)[O-])c1 . Is its MIC99 below 0.1 µM?
label 1

A record lists O=[N+]([O-])c1cc(-c2nnc(SCc3ccccc3)n2Cc2ccccc2)cc([N+](=O)[O-])c1 . Is its MIC99 below 0.1 µM?
label 1

A record lists O=[N+]([O-])c1cc(CSc2nnc(-c3ccc(Br)cc3)n2Cc2ccccc2)cc([N+](=O)[O-])c1 . Is its MIC99 below 0.1 µM?
label 0

A record lists O=[N+]([O-])c1cc(-c2nnc(SCc3ccc(Br)cc3)n2Cc2ccccc2)cc([N+](=O)[O-])c1 . Is its MIC99 below 0.1 µM?
label 0

A record lists COc1ccc(CSc2nnc(-c3cc([N+](=O)[O-])cc([N+](=O)[O-])c3)n2Cc2ccccc2)cc1 . Is its MIC99 below 0.1 µM?
label 1

A record lists Cn1c(SCc2ccc(Cl)c(Cl)c2)nnc1-c1cc([N+](=O)[O-])cc([N+](=O)[O-])c1 . Is its MIC99 below 0.1 µM?
label 1

A record lists Cn1c(SCc2ccccc2)nnc1-c1cc([N+](=O)[O-])cc([N+](=O)[O-])c1 . Is its MIC99 below 0.1 µM?
label 1

---

Assay: Selectivity index, ratio of IC50 for human A431 cells to MIC>99 for antimycobacterial activity against multi-drug resistant Mycobacterium tuberculosis Praha 1 after 14 days
Type: toxicity
Settings: read-out: Selectivity Index
outcomeMeasure: selectivity ratio at 336 h

For O=[N+]([O-])c1cc(-c2nnc(SCc3ccccc3)n2Cc2ccccc2)cc(C(F)(F)F)c1 , write its selectivity ratio at 336 h.
> 100
